These entries and their values trace back to paper PMC9482650.

# study.system: T1, HTRA3, P83110
# T1 sequence (P83110 354-453, limits assumed, looked up): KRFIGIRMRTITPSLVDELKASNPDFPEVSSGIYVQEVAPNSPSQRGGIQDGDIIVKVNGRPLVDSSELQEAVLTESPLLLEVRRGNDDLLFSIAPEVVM
# test.summary: holdup assay
# Design: key: below the threshold = too weak to quantify, mostly under pKd 3.1 to 4
# assay.context: plain residues with an end cap or a label only (N-terminal biotin on a linker: ado-ado)
The following binders are shown together with reported pKd values.
metric: pKd

{"columns": ["binder", "result.value"],
 "data": [
  ["KSRPENGTVC [TMEM178B, H3BS89]", 4.44],
  ["VCMGDHWFDV [PRKN, O60260]", 4.49]
]}
